Assay: Growth inhibition of human U373 cells after 72 hrs by MTT assay
Assay type: functional, cell-based, U-373MG ATCC
Settings: U373 MG
pIC50: −log10 of the molar value.
Listing of recorded pIC50 by entry.

Cpd smiles	pIC50
C[C@]12CC[C@H](OS(=O)(=O)O)C[C@H]1CC[C@@H]1[C@@H]2CC[C@]2(C)[C@@H](c3ccc(=O)oc3)[C@@H](O)C[C@]12O	6.28
C[C@]12CC[C@H]3[C@@H](CC[C@]4(O)C[C@@H](OS(=O)(=O)O)CC[C@]34C=O)[C@@]1(O)CC[C@@H]2c1ccc(=O)oc1	6.40
C[C@@H]1O[C@@H](O[C@H]2CC[C@]3(C=O)[C@H]4CC[C@]5(C)[C@@H](c6ccc(=O)oc6)CC[C@]5(O)[C@@H]4CC[C@]3(O)C2)[C@H](O)[C@H](O)[C@H]1O[C@@H]1O[C@H](CO)[C@@H](O)[C@H](O)[C@H]1O	7.31

====

Items are presented alongside their recorded IC50.
Assay: Growth inhibition of human U373 cells after 72 hrs by MTT assay
Format: functional, cell-based, U-373MG ATCC
Conditions: U373 MG

Cpd smiles	IC50 / nM
C[C@]12CC[C@H](OS(=O)(=O)O)C[C@@]1(O)CC[C@@H]1[C@@H]2CC[C@]2(C)[C@@H](c3ccc(=O)oc3)CC[C@]12O	51
C[C@]12CC[C@H]3[C@@H](CC[C@@H]4C[C@@H](OS(=O)(=O)O)CC[C@@]43CO)[C@@]1(O)CC[C@@H]2c1ccc(=O)oc1	12
C[C@]12CC[C@H]3[C@@H](CC[C@]4(O)C[C@@H](OS(=O)(=O)O)CC[C@]34CO)[C@@]1(O)CC[C@@H]2c1ccc(=O)oc1	323
CC(=O)O[C@H]1C[C@]2(O)[C@@H]3CC[C@@H]4C[C@@H](O)CC[C@]4(C)[C@H]3[C@H](O)C(=O)[C@]2(C)[C@H]1c1ccc(=O)oc1	878

====

System: A549
Assay: Growth inhibition of human A549 cells after 72 hrs by MTT assay
Type: functional, cell-based
Conditions: A549, 72 h
Assay endpoint: IC50 (nM)

Cpd smiles	Experimental value
C[C@]12CC[C@H](OS(=O)(=O)O)C[C@@]1(O)CC[C@@H]1[C@@H]2CC[C@]2(C)[C@@H](c3ccc(=O)oc3)CC[C@]12O	36
C[C@]12CC[C@H](OS(=O)(=O)O)C[C@H]1CC[C@@H]1[C@@H]2CC[C@]2(C)[C@@H](c3ccc(=O)oc3)[C@@H](O)C[C@]12O	464
C[C@@H]1O[C@@H](O[C@H]2CC[C@]3(C=O)[C@H]4CC[C@]5(C)[C@@H](c6ccc(=O)oc6)CC[C@]5(O)[C@@H]4CC[C@]3(O)C2)[C@H](O)[C@H](O)[C@H]1O[C@@H]1O[C@H](CO)[C@@H](O)[C@H](O)[C@H]1O	16
C[C@]12CC[C@H]3[C@@H](CC[C@@H]4C[C@@H](OS(=O)(=O)O)CC[C@@]43CO)[C@@]1(O)CC[C@@H]2c1ccc(=O)oc1	5
C[C@]12CC[C@H]3[C@@H](CC[C@]4(O)C[C@@H](OS(=O)(=O)O)CC[C@]34CO)[C@@]1(O)CC[C@@H]2c1ccc(=O)oc1	80
C[C@]12CC[C@H]3[C@@H](CC[C@]4(O)C[C@@H](OS(=O)(=O)O)CC[C@]34C=O)[C@@]1(O)CC[C@@H]2c1ccc(=O)oc1	45
CC(=O)O[C@H]1C[C@]2(O)[C@@H]3CC[C@@H]4C[C@@H](O)CC[C@]4(C)[C@H]3[C@H](O)C(=O)[C@]2(C)[C@H]1c1ccc(=O)oc1	1360

Data credit: ChEMBL document CHEMBL1157108
